Test system: SNB-75 CNS
Assay: NCI tumour cell line growth inhibition, 48 h; in the data active = GI50 below about 0.43 µM; inactive = the rest
Possible outcomes: active, inactive

# Compound, Label class
records = [
    ("COc1ccc(C2C3=C(NC(=O)C2C#N)c2ccc4ccccc4c2OCC3)cc1 (configuration not stated)", "inactive"),
    ("COc1ccccc1-c1cc2c3c(nc4ccccc42)C(=O)c2cccnc2-c3n1", "inactive"),
    ("[Cu+2].[Cu+2].[O-]c1ccccc1C=Nc1ccccc1[O-].[O-]c1ccccc1C=Nc1ccccc1[O-]", "inactive"),
    ("COc1ccc(C(CC(=O)c2ccccc2)C(C(=O)c2ccccc2)C(c2ccc(OC)cc2)C2C(=O)NC(=O)NC2=O)cc1 (configuration not stated)", "inactive"),
    ("Brc1c[n+](Cc2ccc3ccccc3c2)cn1Cc1ccc2ccccc2c1", "inactive"),
    ("C=C1C(=O)O[C@H]2[C@H]1CC/C(COC(=O)OCCCCCOC(=O)OC/C1=C/CC[C@@]3(C)O[C@H]3[C@H]3OC(=O)C(=C)[C@@H]3CC1)=C\\CC[C@@]1(C)O[C@@H]21", "inactive"),
    ("COc1ccc2c(c1)C(=O)c1c-2c(NCCCN(C)C)nc2ccccc12", "inactive"),
    ("c1ccc2c(c1)O[As](O[As]1Oc3ccccc3O1)O2", "inactive"),
    ("O=C1C=C(SCCO)C(=O)c2ccccc21", "inactive"),
    ("ClCCN(CCCl)Cc1ccc(Nc2ccnc3cc(Cl)ccc23)cc1", "inactive"),
    ("COC1=CC(c2ccc[nH]2)=N/C1=C\\c1[nH]c(C)c(C(=O)CCC(=O)Oc2ccc3c(c2)CCC2C3CC[C@]3(C)C(=O)CC[C@@H]23)c1C (some centres not stated)", "inactive"),
    ("Cc1nc2sc(C(=O)Nc3cccc4ccccc34)c(N)c2cc1C(C)O (configuration not stated)", "active"),
    ("O=C(NCc1cn(Cc2cccc(Oc3ccccc3)c2)nn1)c1cccnc1Nc1ccccc1", "inactive"),
    ("CCOc1ccc(NC(=O)Nc2cc(C(C)C)ccc2C)cc1", "inactive"),
    ("O=C1C(=O)c2ccc(Br)cc2-c2cc(Br)ccc21", "inactive"),
    ("COc1ccc2c(c1)Oc1nc(N)c(C#N)c(N)c1C2Sc1ccc(SC)cc1 (configuration not stated)", "inactive"),
    ("COc1ccc(-c2cc3c4c(nc5ccccc5c4c2)CC(c2cc(OC)c(OC)c(OC)c2)O3)cc1 (configuration not stated)", "inactive"),
]
